Reference source for all entries: the Human Domainome abundance scans (Beltran et al. 2025)

Let's look at some variants and their measured abundance fitness.
B1: WW domain-binding protein 4, residues 8 to 43; numbered along this chain, O75554 (parent)
chain: QPKKFCDYCKCWIADNRPSVEFHERGKNHKENVAKR

- Variants of: B1
- procedure_summary: abundance fitness (aPCA) (normalised: wild type 0, dead -1); higher = more abundant; growth selection in yeast, the domain comes from the species named
- recorded_conditions: Homo sapiens
// return a plain number; no unit text

Task: What value of measured abundance fitness is listed for E31R ?
Result: -0.103

Task: Fill in the blank: the reported abundance fitness of K10C is ____.
Result: -0.325

Task: So what does the record say about abundance fitness for V20C ?
Result: -0.574

Task: Any idea what abundance fitness was measured for N16K ?
Result: 0.102

Task: Item D15F has what recorded abundance fitness?
Result: -0.235

Task: Can you look up the measured abundance fitness of S19E for me?
Result: -0.245

Task: Field request: abundance fitness | item: R25D
Result: 0.099

Task: Using the record for P2R , report its abundance fitness.
Result: 0.047
